# Assay Details: Dissociation constant, pKa of the compound
# Assay type: physicochemical
Measurement Name: pKa

I: COC(=O)CCCNC[C@@H](C)[C@H]1CC[C@H]2[C@@H]3CC=C4C[C@@H](OC(=O)CN(C)C)CC[C@]4(C)[C@H]3CC[C@]12C
II: COC(=O)CCCNC[C@@H](C)[C@H]1CC[C@H]2[C@@H]3CC=C4C[C@@H](OC(=O)CCC(=O)O)CC[C@]4(C)[C@H]3CC[C@]12C
Between the two listed entries I and II , which has its pKa at the higher number? Refer to your chosen item by its label in the answer. I
(I: 7.1, II: 4.4)

* * *

Readings of pEC50 for the listed compounds
# Test system: Leishmania donovani
# Assay Details: Antitrypanosomal activity against Leishmania donovani amastigotes
# Type: functional, organism-based
When answering, recall that pEC50 equals minus log10 of the concentration in mol/L, and write that number alone.

What does the data say about its pEC50? Entry: `CC(=O)O[C@H]1CC[C@@]2(C)C(=CC[C@H]3[C@@H]4CC[C@H]([C@H](C)CCC(=O)N(C)C)[C@@]4(C)CC[C@@H]32)C1` 4.61

What does the data say about its pEC50? Entry: `CC(=O)O[C@H]1CC[C@@]2(C)C(=CC[C@H]3[C@@H]4CC[C@H]([C@H](C)CCCN5CCCC5=O)[C@@]4(C)CC[C@@H]32)C1` 4.86

What does the data say about its pEC50? Entry: `COC(=O)CCCNC[C@@H](C)[C@H]1CC[C@H]2[C@@H]3CC=C4C[C@@H](OC(=O)CC(C)C)CC[C@]4(C)[C@H]3CC[C@]12C` 5.31

What does the data say about its pEC50? Entry: `COC(=O)CCCNCCC[C@@H](C)[C@H]1CC[C@H]2[C@@H]3CC=C4C[C@@H](OC(C)=O)CC[C@]4(C)[C@H]3CC[C@]12C` 4.62

* * *

# Assay Details: Lipophilicity, log D of the compound
# Type: physicochemical
# Conditions: octanol/water
Measurement Name: logD

Past entries and their recorded results:
COC(=O)CCCNC[C@@H](C)[C@H]1CC[C@H]2[C@@H]3CC=C4C[C@@H](OC(=O)C(C)(C)C)CC[C@]4(C)[C@H]3CC[C@]12C = 5.8
COC(=O)CCCNC[C@@H](C)[C@H]1CC[C@H]2[C@@H]3CC=C4C[C@@H](OC(=O)c5cccnc5)CC[C@]4(C)[C@H]3CC[C@]12C = 5.2
COC(=O)CCCNC[C@@H](C)[C@H]1CC[C@H]2[C@@H]3CC=C4C[C@@H](OC(=O)CN(C)C)CC[C@]4(C)[C@H]3CC[C@]12C = 4.4

a: COC(=O)CCCNC[C@@H](C)[C@H]1CC[C@H]2[C@@H]3CC=C4C[C@@H](OC(=O)CCC(=O)O)CC[C@]4(C)[C@H]3CC[C@]12C
b: COC(=O)CCCNC[C@@H](C)[C@H]1CC[C@H]2[C@@H]3CC=C4C[C@@H](OC(=O)CC(C)C)CC[C@]4(C)[C@H]3CC[C@]12C
Between the two listed entries a and b , which has its logD at the higher number? Refer to your chosen item by its label in the answer. b
(b: 6, a: 4.1)

* * *

# Tested on: Leishmania donovani
# Assay Details: Antitrypanosomal activity against Leishmania donovani amastigotes
# Assay type: functional, organism-based
Readings of EC50 for the listed compounds
Hi! Could you send only the number? It should be in µM, unit omitted.

Past entries and their recorded results:
COC(=O)CCCCCNCCC[C@@H](C)[C@H]1CC[C@H]2[C@@H]3CC=C4C[C@@H](OC(C)=O)CC[C@]4(C)[C@H]3CC[C@]12C = 11.7
CCC(=O)O[C@H]1CC[C@@]2(C)C(=CC[C@H]3[C@@H]4CC[C@H]([C@H](C)CNCCCC(=O)OC)[C@@]4(C)CC[C@@H]32)C1 = 12.1
COC(=O)CCCNC[C@@H](C)[C@H]1CC[C@H]2[C@@H]3CC=C4C[C@@H](OC(=O)c5cccnc5)CC[C@]4(C)[C@H]3CC[C@]12C = 13.7
COC(=O)CCCNC(=O)CC[C@@H](C)[C@H]1CC[C@H]2[C@@H]3CC=C4C[C@@H](OC(C)=O)CC[C@]4(C)[C@H]3CC[C@]12C = 3.1

Please provide the recorded EC50 for `COC(=O)CCCNC[C@@H](C)[C@H]1CC[C@H]2[C@@H]3CC=C4C[C@@H](OC(C)=O)CC[C@]4(C)[C@H]3CC[C@]12C` , tested on Leishmania donovani. 19.2

Please provide the recorded EC50 for `CC(=O)O[C@H]1CC[C@@]2(C)C(=CC[C@H]3[C@@H]4CC[C@H]([C@H](C)CCCNCCCCCC(=O)O)[C@@]4(C)CC[C@@H]32)C1` , tested on Leishmania donovani. 11.4

Please provide the recorded EC50 for `COC(=O)CCCNC[C@@H](C)[C@H]1CC[C@H]2[C@@H]3CC=C4C[C@@H](OC(=O)CN(C)C)CC[C@]4(C)[C@H]3CC[C@]12C` , tested on Leishmania donovani. 18.5

Please provide the recorded EC50 for `COC(=O)CCCCCNC(=O)CC[C@@H](C)[C@H]1CC[C@H]2[C@@H]3CC=C4C[C@@H](OC(C)=O)CC[C@]4(C)[C@H]3CC[C@]12C` , tested on Leishmania donovani. 1.6

* * *

# Assay Details: Cytotoxicity against rat L6 cells
# Type: cell-based
# Conditions: read-out: TD50 (the source's name)
Measurement Name: CC50 (µM)
Hi! Could you send only the number? It should be in µM, unit omitted.

Past entries and their recorded results:
COC(=O)CCCNC[C@@H](C)[C@H]1CC[C@H]2[C@@H]3CC=C4C[C@@H](OC(=O)CN(C)C)CC[C@]4(C)[C@H]3CC[C@]12C = 24
CCC(=O)O[C@H]1CC[C@@]2(C)C(=CC[C@H]3[C@@H]4CC[C@H]([C@H](C)CNCCCC(=O)OC)[C@@]4(C)CC[C@@H]32)C1 = 21.9
CC(=O)O[C@H]1CC[C@@]2(C)C(=CC[C@H]3[C@@H]4CC[C@H]([C@H](C)CCC(=O)NCCCCCC(=O)O)[C@@]4(C)CC[C@@H]32)C1 = 63
CCCC(=O)O[C@H]1CC[C@@]2(C)C(=CC[C@H]3[C@@H]4CC[C@H]([C@H](C)CNCCCC(=O)OC)[C@@]4(C)CC[C@@H]32)C1 = 30.7
COC(=O)CCCCCNCCC[C@@H](C)[C@H]1CC[C@H]2[C@@H]3CC=C4C[C@@H](OC(C)=O)CC[C@]4(C)[C@H]3CC[C@]12C = 7.4

# context switch: different compound, same CC50
What does the data say about its CC50? Entry: `COC(=O)CCCNCCC[C@@H](C)[C@H]1CC[C@H]2[C@@H]3CC=C4C[C@@H](OC(C)=O)CC[C@]4(C)[C@H]3CC[C@]12C` 5.8

* * *

Readings of CC50 for the listed compounds
# Assay Details: Cytotoxicity against rat L6 cells
# Type: cell-based
# Conditions: read-out: TD50 (the source's name)
Hi! Could you send only the number? It should be in µM, unit omitted.

Past entries and their recorded results:
COC(=O)CCCNC[C@@H](C)[C@H]1CC[C@H]2[C@@H]3CC=C4C[C@@H](OC(=O)CCC(=O)O)CC[C@]4(C)[C@H]3CC[C@]12C = 76.7
COC(=O)CCCNC[C@@H](C)[C@H]1CC[C@H]2[C@@H]3CC=C4C[C@@H](OC(=O)C(C)(C)C)CC[C@]4(C)[C@H]3CC[C@]12C = 11.1
CC(=O)O[C@H]1CC[C@@]2(C)C(=CC[C@H]3[C@@H]4CC[C@H]([C@H](C)CCCN5CCCC5=O)[C@@]4(C)CC[C@@H]32)C1 = 2.5

What does the data say about its CC50? Entry: `COC(=O)CCCNC[C@@H](C)[C@H]1CC[C@H]2[C@@H]3CC=C4C[C@@H](OC(=O)c5cccnc5)CC[C@]4(C)[C@H]3CC[C@]12C` 9.8

What does the data say about its CC50? Entry: `CC(=O)O[C@H]1CC[C@@]2(C)C(=CC[C@H]3[C@@H]4CC[C@H]([C@H](C)CCCNCCCCCC(=O)O)[C@@]4(C)CC[C@@H]32)C1` 56

What does the data say about its CC50? Entry: `COC(=O)CCCNC[C@@H](C)[C@H]1CC[C@H]2[C@@H]3CC=C4C[C@@H](OC(=O)CC(C)C)CC[C@]4(C)[C@H]3CC[C@]12C` 33.2

* * *

# System: Leishmania donovani
# Assay Details: Antitrypanosomal activity against Leishmania donovani amastigotes
# Assay type: functional, organism-based
Readings of EC50 for the listed compounds
Hi! Could you send only the number? It should be in µM, unit omitted.

Past entries and their recorded results:
CCCC(=O)O[C@H]1CC[C@@]2(C)C(=CC[C@H]3[C@@H]4CC[C@H]([C@H](C)CNCCCC(=O)OC)[C@@]4(C)CC[C@@H]32)C1 = 6.8
COC(=O)CCCNC[C@@H](C)[C@H]1CC[C@H]2[C@@H]3CC=C4C[C@@H](OC(=O)CCC(=O)O)CC[C@]4(C)[C@H]3CC[C@]12C = 35.7

What does the data say about its EC50? Entry: `CC(=O)O[C@H]1CC[C@@]2(C)C(=CC[C@H]3[C@@H]4CC[C@H]([C@H](C)CCC(=O)NCCCCCC(=O)O)[C@@]4(C)CC[C@@H]32)C1` 2

What does the data say about its EC50? Entry: `COC(=O)CCCNC[C@@H](C)[C@H]1CC[C@H]2[C@@H]3CC=C4C[C@@H](OC(=O)C(C)(C)C)CC[C@]4(C)[C@H]3CC[C@]12C` 11.3

Every entry's value here was drawn from ChEMBL document CHEMBL1153496.
